- tested_target: CCK receptor (pancreas) (Rattus norvegicus, UniProt P30551)
- Construct: The whole pancreas was dissected free of fat tissue and was homogenized; from tissue; host or cells: rat pancreas membranes (Sprague-Dawley)
- Sequence (P30551 whole entry): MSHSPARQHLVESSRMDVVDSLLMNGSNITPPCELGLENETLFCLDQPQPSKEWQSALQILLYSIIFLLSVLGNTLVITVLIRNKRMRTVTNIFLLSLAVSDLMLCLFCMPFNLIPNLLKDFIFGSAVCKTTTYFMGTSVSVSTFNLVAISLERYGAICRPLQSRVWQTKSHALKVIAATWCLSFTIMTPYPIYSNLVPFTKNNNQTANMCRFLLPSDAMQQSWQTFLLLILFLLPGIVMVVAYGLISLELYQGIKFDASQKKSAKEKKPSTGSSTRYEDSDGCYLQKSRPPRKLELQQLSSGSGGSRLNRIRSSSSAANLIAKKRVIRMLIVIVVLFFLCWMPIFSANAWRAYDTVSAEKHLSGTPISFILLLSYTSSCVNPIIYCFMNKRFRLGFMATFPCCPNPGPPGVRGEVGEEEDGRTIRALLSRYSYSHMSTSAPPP
- protocol_description: CCK Receptor Binding (Pancreas): inhibition of ^125 I-CCK-33 binding
- Set-up: species or system Male Sprague-Dawley rats
- condition_notes: IC50 ^125 I-CCK Pancreas, rat pancreas membranes, ^125 I-CCK-33, 37° C., 30 minutes
Where a name gives a salt, the structure may show the parent alone.
With a cut-off of 2 µM, any IC50 strictly below it is called class 1; any IC50 meeting it or above is called class 0.

Input: Consider the molecule NCCCC[C@H]1N=C(c2ccccc2F)c2ccccc2NC1=O [Example 65] . Is its IC50 strictly less than 2 µM?
Output: class 0

Input: Say whether its IC50 is strictly beneath 2 µM. Entry: CCOC(=O)CN1C(=O)C(NC(=O)NC(C)C)N=C(c2ccccc2F)c2ccccc21 (stereo not shown) [Example 205]
Output: class 0

Input: Quick check: IC50 of O=C1Nc2ccccc2C(c2ccccc2F)=N[C@@H]1CC1CNc2ccccc21 (stereo partly shown) [Example 9] under 2 µM?
Output: class 0

Input: Hello, I'm reviewing records and need to know if IC50 of Cc1cccc(NC(=O)N[C@@H]2N=C(c3ccccc3)c3ccccc3N(C)C2=O)c1 [Example 281] is below 2 µM. Could you check?
Output: class 1

Input: Quick check: IC50 of CC(C)CC(N)C(=O)N1CC(CC2N=C(c3ccccc3)c3ccccc3NC2=O)c2ccccc21 (stereo not shown) [Example 227, hydrochloride] under 2 µM?
Output: class 0

Input: Criterion: IC50 strictly below 2 µM. Is it met by COc1cccc(CC(=O)N[C@H]2N=C(c3ccccc3)c3ccccc3N(C)C2=O)c1 [Example 268] ?
Output: class 1

Input: API: query returns whether the molecule falls strictly under 2 µM in IC50. Query: CC(C)CCN1C(=O)[C@@H](Cc2c[nH]c3ccccc23)N=C(c2ccccc2F)c2ccccc21 [Example 39]
Output: class 0

Input: Determine whether this molecule shows IC50 lower than 2 µM (ties excluded): CN1C(=O)C(C(O)c2c[nH]c3ccccc23)N=C(c2ccccc2)c2ccccc21 (racemic) [Example 47]
Output: class 0

Input: Given the entry CCOC(=O)CN1C(=O)[C@@H](Cc2c[nH]c3ccccc23)N=C(c2ccccc2F)c2ccccc21 [Example 42] , would its reported IC50 be below 2 µM?
Output: class 0

Input: Threshold test, IC50 < 2 µM: O=C1Nc2ccc(Cl)cc2C(c2ccccc2)=N[C@@H]1Cc1cn(-c2ccc([N+](=O)[O-])cc2[N+](=O)[O-])cn1 [Example 55]
Output: class 0

Input: Report whether reported IC50 is lower than 2 µM (strictly) for CN1C(=O)C(CC(=O)Nc2ccc(Cl)cc2)N=C(c2ccccc2)c2ccccc21 (stereo not shown) [Example 297]
Output: class 1

Input: Quick check: does O=C(NC1N=C(c2ccccc2F)c2ccccc2NC1=S)c1cc2ccccc2[nH]1 (racemic) [Example 181] have IC50 under 2 µM?
Output: class 1

###

As shown below, each of these compounds has a reported pIC50 value.
- tested_target: Gastrin receptor (gastric glands) (Cavia porcellus)
- Construct: The washed guinea pig gastric glands prepared as above were resuspended; from tissue; host or cells: guinea pig gastric mucosal glands (male Hartley)
- Sequence (H0VZC5 1-426): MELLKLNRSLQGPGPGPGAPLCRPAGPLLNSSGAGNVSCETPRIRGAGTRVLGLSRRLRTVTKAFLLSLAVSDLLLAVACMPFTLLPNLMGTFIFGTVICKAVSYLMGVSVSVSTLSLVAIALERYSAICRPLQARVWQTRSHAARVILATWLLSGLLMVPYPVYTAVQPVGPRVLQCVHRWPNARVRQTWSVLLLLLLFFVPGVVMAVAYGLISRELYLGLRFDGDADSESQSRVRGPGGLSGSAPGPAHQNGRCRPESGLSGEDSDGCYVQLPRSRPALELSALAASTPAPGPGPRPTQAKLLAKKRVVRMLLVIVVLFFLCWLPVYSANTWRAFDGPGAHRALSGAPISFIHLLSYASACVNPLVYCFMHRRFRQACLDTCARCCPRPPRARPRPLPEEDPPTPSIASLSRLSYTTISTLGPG
- protocol_description: Gastrin Receptor Binding in Guinea Pig Gastric Glands
- Parameters: species or system guinea pig (male Hartley)
- condition_notes: ^125 I-gastrin, 25° C., 30 minutes, read-out: IC50 ^125 I-Gastrin Gastric Glands
Interpret pIC50 as the negative base-10 log of the concentration measured in mol/L.

Please review the entries below; each comes with its answer.
compound	experimental_result
CCOC(=O)CN1C(=O)C(NC(=O)OCc2ccccc2)N=C(c2ccccc2)c2ccccc21 (stereo not shown)	6.52
CCN(CC)C(=O)CN1C(=O)C(NC(=O)Nc2cccc(OC)c2)N=C(c2ccccc2)c2ccccc21 (stereo not shown)	9.59
O=C(CN1C(=O)C(NC(=O)Nc2ccc(Cl)cc2)N=C(c2ccccc2)c2ccccc21)NCc1ccccc1 (stereo not shown)	6.82

Memo: CN1C(=O)[C@@H](NC(=O)c2ccc(C(C)(C)C)cc2)N=C(c2ccccc2F)c2ccccc21 , reported pIC50: 5.62

Lab note: C[C@@H](NC(=O)NC1N=C(c2ccccc2)c2ccccc2N(C)C1=O)c1ccccc1 (stereo partly shown) gave pIC50 of 5.49

pIC50 recorded for this compound, O=C(NC1N=C(c2ccccc2F)c2ccccc2NC1=O)OCc1ccccc1 (racemic) , is 5.10

Per the records, this compound ( CN1C(=O)[C@@H](NC(=O)c2ccc(Br)cc2)N=C(c2ccccc2)c2ccccc21 ) has pIC50 equal to 6.21

Given item COc1cccc(NC(=O)N[C@@H]2N=C(c3ccccc3)c3ccccc3N(C)C2=O)c1 , the value recorded as its pIC50 is 8.89

Cc1ccc(S(=O)(=O)NC(=O)NC2N=C(c3ccccc3)c3ccccc3N(C)C2=O)cc1 (stereo not shown) has a reported pIC50 of 5.66

Briefly, pIC50 measured for CN1C(=O)C(NC(=O)Nc2ccc(Cl)cc2)N=C(c2ccccc2)c2ccccc21 (stereo not shown) : 7.66
